molecular target: T1, human MSLN-R3-his protein (human, UniProt Q13421 487-598); experiment: ELISA, coated MSLN-R3
T1 construct: Region 3 of human MSLN, His-tagged; also called human MSLN-R3 protein; hMSLN-R3-his; not shown: His tag
T1 sequence (Q13421 495-606): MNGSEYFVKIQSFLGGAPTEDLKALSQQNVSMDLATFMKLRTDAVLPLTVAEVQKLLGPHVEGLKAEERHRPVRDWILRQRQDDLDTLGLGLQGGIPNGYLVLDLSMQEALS
propertyMeasured: OD450 at 0.01 nM

- S009-F1.56.1 (antibody, human IgG1, kappa, V domains shown, Human-murine chimeric antibody, human IgG1/kappa constant regions) VH: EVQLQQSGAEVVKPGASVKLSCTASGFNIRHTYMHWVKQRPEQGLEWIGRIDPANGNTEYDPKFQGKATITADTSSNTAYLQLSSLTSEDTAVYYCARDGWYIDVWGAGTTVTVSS VL: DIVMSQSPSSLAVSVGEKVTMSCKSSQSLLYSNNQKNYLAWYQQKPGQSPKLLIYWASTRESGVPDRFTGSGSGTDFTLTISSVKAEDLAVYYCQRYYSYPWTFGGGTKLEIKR: 0.04 OD450
- S009-F1.35.24 (antibody, human IgG1, kappa, V domains shown, Human-murine chimeric antibody, human IgG1/kappa constant regions) VH: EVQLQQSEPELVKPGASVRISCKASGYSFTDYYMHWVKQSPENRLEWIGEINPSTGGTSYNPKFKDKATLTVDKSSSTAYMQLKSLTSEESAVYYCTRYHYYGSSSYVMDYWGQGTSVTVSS VL: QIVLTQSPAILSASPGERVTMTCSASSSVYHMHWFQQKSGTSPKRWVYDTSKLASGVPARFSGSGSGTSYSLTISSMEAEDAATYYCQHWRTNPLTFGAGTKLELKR: 0.05 OD450
- S009-F1.25.10 (antibody, human IgG1, kappa, V domains shown, Human-murine chimeric antibody, human IgG1/kappa constant regions) VH: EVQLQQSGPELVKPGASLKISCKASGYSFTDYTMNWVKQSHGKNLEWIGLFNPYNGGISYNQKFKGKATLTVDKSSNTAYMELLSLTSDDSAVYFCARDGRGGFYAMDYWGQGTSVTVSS VL: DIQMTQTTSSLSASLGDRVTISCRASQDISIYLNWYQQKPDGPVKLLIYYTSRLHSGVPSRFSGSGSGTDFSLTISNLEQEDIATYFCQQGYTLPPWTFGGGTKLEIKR: 0.09 OD450
- S009-F1.2.12 (antibody, human IgG1, kappa, V domains shown) VH: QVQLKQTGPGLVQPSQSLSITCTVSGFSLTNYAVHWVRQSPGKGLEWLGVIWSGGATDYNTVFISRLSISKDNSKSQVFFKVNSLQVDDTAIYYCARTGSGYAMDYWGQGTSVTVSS VL: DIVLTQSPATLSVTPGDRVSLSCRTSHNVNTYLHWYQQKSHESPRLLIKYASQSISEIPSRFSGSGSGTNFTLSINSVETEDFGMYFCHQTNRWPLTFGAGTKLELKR: 0.05 OD450

Numbers sourced from patent US20250250357A1.
